# Species on record: Mus musculus
# Test method notes: Selectivity ratio of IC50 for mouse COX-1 to IC50 for mouse COX-2
Below, each entry is listed with its recorded Ratio IC50.

Solved entries (count: 7):
Smiles string | Result
Cc1c(CCOCCF)cc(-c2ccc(S(C)(=O)=O)cc2)n1-c1cccc(F)c1 | > 714
Cc1c(CCOCCF)cc(-c2ccc(S(C)(=O)=O)cc2)n1-c1ccc(F)cc1 | > 7690
Cc1c(CCOCCF)cc(-c2ccc(S(C)(=O)=O)cc2)n1-c1ccc(F)c(F)c1 | > 3450
Cc1c(CCOCCCF)cc(-c2ccc(S(C)(=O)=O)cc2)n1-c1ccc(F)cc1 | > 14300
CCCOCCc1cc(-c2ccc(S(C)(=O)=O)cc2)n(-c2cccc(F)c2)c1C | > 7690
Cc1c(CCOCCCF)cc(-c2ccc(S(C)(=O)=O)cc2)n1-c1cccc(F)c1 | > 2860
CCCOCCc1cc(-c2ccc(S(C)(=O)=O)cc2)n(-c2ccc(F)c(F)c2)c1C | > 5560

Next compound, please.
Problem: I am curious: what Ratio IC50 value has been reported for Cc1c(CCOCCCF)cc(-c2ccc(S(C)(=O)=O)cc2)n1-c1ccc(F)c(F)c1 ?
Result: > 5260

----------
# System: HaCaT
# Test method notes: Antiproliferative activity against human HaCaT cells at 10 uM after 24 hrs by BrdU incorporation assay
# Type: functional, cell-based
The source made the active and inactive calls. The rule behind the calls is not given here.
Hi! Could you answer with just one of these? YES for active, NO for inactive

Field: example entries. Status: answers known.
Smiles string | Target or test system | Assigned category
Cc1c(CCOCCCF)cc(-c2ccc(S(C)(=O)=O)cc2)n1-c1cccc(F)c1 | HaCaT | NO
Cc1c(CCOCCCF)cc(-c2ccc(S(C)(=O)=O)cc2)n1-c1ccc(F)cc1 | HaCaT | YES
CCCOCCc1cc(-c2ccc(S(C)(=O)=O)cc2)n(-c2ccc(F)c(F)c2)c1C | HaCaT | YES
Cc1c(CCOCCF)cc(-c2ccc(S(C)(=O)=O)cc2)n1-c1ccc(F)c(F)c1 | HaCaT | YES

Now examine the next entry.
Problem: Called result for CCCOCCc1cc(-c2ccc(S(C)(=O)=O)cc2)n(-c2cccc(F)c2)c1C
Result: NO

----------
# System: HaCaT
# Test method notes: Cytotoxicity against human HaCaT cells at 1 to 50 uM after 24 hrs by LDH release assay
# Assay type: cell-based

Smiles string | Target or test system | Activity
Cc1c(CCOCCF)cc(-c2ccc(S(C)(=O)=O)cc2)n1-c1ccc(F)cc1 | HaCaT | Non-toxic
Cc1c(CCOCCF)cc(-c2ccc(S(C)(=O)=O)cc2)n1-c1ccc(F)c(F)c1 | HaCaT | Non-toxic
Cc1c(CCOCCCF)cc(-c2ccc(S(C)(=O)=O)cc2)n1-c1ccc(F)c(F)c1 | HaCaT | Non-toxic
